biological target: FP receptors (Swiss 3T3 cells expressing FP receptors) (Mus musculus, UniProt P43117); construct: endogenous in cells; host or cells: Swiss 3T3 cells; test: FP receptor-mediated phosphoinositide turnover assay; format: cell-based; conditions: Table 1; [3H]-IPs in Swiss 3T3 cells; read-out: FP functional EC50
Sequence (P43117 whole entry): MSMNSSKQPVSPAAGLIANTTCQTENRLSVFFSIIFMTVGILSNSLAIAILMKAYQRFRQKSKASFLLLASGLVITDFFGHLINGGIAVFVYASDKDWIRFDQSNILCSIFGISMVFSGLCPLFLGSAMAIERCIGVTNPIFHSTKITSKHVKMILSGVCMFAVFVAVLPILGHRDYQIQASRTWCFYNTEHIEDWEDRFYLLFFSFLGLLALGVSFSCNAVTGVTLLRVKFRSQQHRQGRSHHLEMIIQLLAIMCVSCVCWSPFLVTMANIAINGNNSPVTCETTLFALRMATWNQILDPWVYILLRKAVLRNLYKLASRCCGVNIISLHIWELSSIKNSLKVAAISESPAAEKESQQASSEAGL
reportedMetric: EC50 (nM)

O=C(O)CCC/C=C\C[C@@H]1[C@@H](OC[C@H](O)COc2cccc(Cl)c2)[C@H](O)C[C@@H]1O 503
O=C(O)CCC/C=C\C[C@H]1[C@@H](O)CO[C@@H]1/C=C/[C@H](O)COc1cccc(C(F)(F)F)c1 889

[A] O=C(O)CC/C=C\CC[C@H]1[C@@H](O)CO[C@@H]1/C=C/[C@@H](O)COc1cccc(Cl)c1
[B] O=C(O)CCC/C=C\C[C@H]1[C@@H](O)CO[C@@H]1/C=C/[C@@H](O)COc1ccc(F)cc1
Returns: the label, A or B , whose recorded EC50 is the lower number. Refer to your chosen entry by its label in the reply. A

* * *

biological target: FP receptors (Swiss 3T3 cells expressing FP receptors) (Mus musculus); construct: endogenous in cells; host or cells: Swiss 3T3 cells; experiment: FP receptor-mediated phosphoinositide turnover assay; format: cell-based; conditions: Table 1; [3H]-IPs in Swiss 3T3 cells; read-out: FP functional EC50
pEC50: −log10 of the molar value.
reportedMetric: pEC50

Some compounds with recorded pEC50:
O=C(O)CC/C=C\CC[C@@H]1[C@@H](CC[C@@H](F)COc2ccccc2)[C@H](O)C[C@@H]1O 8.06
O=C(O)CCC/C=C\C[C@@H]1[C@@H](/C=C/[C@@H](F)COc2ccccc2)[C@H](O)C[C@@H]1O 8.42

[P] O=C(O)CCC/C=C\C[C@@H]1[C@@H](CC[C@@H](F)COc2cccc(C(F)(F)F)c2)[C@H](O)C[C@@H]1O
[Q] O=C(O)CCC/C=C\C[C@H]1[C@@H](O)CO[C@@H]1/C=C/[C@@H](O)COc1ccccc1
[R] O=C(O)CCC/C=C\C[C@@H]1[C@@H](/C=C/[C@@H](F)COc2cccc(Cl)c2)[C@H](O)C[C@@H]1O
Reorder the items by pEC50, least to greatest. # the answer lists labels in the order requested Q, P, R

* * *

Target: FP receptors (Swiss 3T3 cells expressing FP receptors) (Mus musculus, UniProt P43117)
Construct: endogenous in cells; host or cells: Swiss 3T3 cells
Test: FP receptor-mediated phosphoinositide turnover assay
Format: cell-based
Conditions: Swiss-3T3, 1 h; Table 1; efficacy relative to standard full agonist (100%); read-out: FP functional (%) agonistic activity
Description: FP receptor-mediated phosphoinositide turnover assay: [^3H]Inositol phosphates ([^3H]-IPs) produced by agonist-mediated activation of phospholipase C in Swiss 3T3 cells expressing FP receptors were quantified as follows. Confluent 3T3 cells were exposed to 1.0-1.5 μCi [^3H]-myo-inositol (18.3 Ci/mmol) in 0.5 ml DMEM for 24-30 hours at 37° C. […] To this eluate was added 15 ml of scintillation fluid and the total [^3H]-IPs determined by scintillation counting on a beta-counter. […]
reportedMetric: Emax (%)

compound	Emax (%)
O=C(O)CCC/C=C\C[C@H]1CC[C@@H](O)[C@@H]1/C=C/[C@@H](O)CCc1ccccc1	87.6
O=C(O)CCC/C=C\C[C@H]1[C@@H](O)CO[C@@H]1/C=C/[C@@H](O)COc1cccc(Cl)c1	88
O=C(O)CCC/C=C\C[C@H]1[C@@H](O)CO[C@@H]1/C=C/[C@H](O)COc1ccc(F)cc1	75

[P] O=C(O)CCC/C=C\C[C@@H]1[C@@H](CC[C@@H](F)COc2cccc(C(F)(F)F)c2)[C@H](O)C[C@@H]1O
[Q] O=C(O)CC/C=C\CC[C@H]1[C@@H](O)CO[C@@H]1/C=C/[C@H](O)COc1ccccc1
Exercise: compare P and Q ; which one has the greater Emax? Let me know the label of the one you choose. P
